Biological target: PDGFRB (human) (UniProt P09619)
Sequence (P09619 whole entry, looked up): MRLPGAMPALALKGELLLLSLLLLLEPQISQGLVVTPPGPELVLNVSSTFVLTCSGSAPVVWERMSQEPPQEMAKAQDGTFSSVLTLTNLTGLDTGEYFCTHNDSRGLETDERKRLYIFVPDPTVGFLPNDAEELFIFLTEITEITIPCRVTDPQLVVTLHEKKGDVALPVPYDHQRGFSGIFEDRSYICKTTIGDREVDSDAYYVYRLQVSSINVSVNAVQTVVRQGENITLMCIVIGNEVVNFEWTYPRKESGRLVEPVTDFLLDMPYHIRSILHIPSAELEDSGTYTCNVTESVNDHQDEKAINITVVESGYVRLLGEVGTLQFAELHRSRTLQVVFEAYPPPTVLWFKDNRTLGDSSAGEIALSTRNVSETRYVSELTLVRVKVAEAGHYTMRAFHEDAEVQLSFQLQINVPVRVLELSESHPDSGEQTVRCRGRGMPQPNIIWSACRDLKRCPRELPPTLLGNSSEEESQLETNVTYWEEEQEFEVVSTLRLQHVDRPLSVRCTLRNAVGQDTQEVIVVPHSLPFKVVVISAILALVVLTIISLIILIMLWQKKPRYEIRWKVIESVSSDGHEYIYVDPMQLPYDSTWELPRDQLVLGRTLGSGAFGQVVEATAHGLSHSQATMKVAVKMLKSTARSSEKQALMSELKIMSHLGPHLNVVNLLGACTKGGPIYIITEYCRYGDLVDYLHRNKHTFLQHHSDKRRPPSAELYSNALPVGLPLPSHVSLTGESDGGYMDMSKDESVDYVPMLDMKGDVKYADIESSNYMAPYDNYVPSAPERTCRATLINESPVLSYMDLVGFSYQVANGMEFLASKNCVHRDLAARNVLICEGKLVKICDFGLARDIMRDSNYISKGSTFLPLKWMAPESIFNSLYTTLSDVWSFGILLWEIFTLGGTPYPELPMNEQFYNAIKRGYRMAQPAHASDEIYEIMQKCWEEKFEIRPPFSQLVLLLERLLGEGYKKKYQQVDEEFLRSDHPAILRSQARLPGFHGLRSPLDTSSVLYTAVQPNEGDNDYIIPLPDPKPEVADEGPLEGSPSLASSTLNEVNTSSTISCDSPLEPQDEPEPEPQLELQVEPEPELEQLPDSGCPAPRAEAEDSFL
Test: radiometric filter-binding kinase assay, Kinase HotSpot
Conditions: compound 0.5 µM; ATP 10 µM
For each entry below, report its residual activity value.
The reply should contain only the number, in %.

Request: Read off the recorded residual activity for FC(F)(F)c1ccc(/C=C/c2nc(COc3ccc(CCCCn4ccnn4)cc3)co2)cc1
Result: 98.1

Request: Read off the recorded residual activity for CN[C@@H]1C[C@H]2O[C@@](C)([C@@H]1OC)n1c3ccccc3c3c4c(c5c6ccccc6n2c5c31)C(=O)NC4
Result: 2.28

Request: Read off the recorded residual activity for O=C1NC(=O)c2c1c1c3ccccc3[nH]c1c1[nH]c3cc(Br)ccc3c21
Result: 82.6

Request: Read off the recorded residual activity for COc1cc2ncnc(Nc3ccc(O)c(Br)c3)c2cc1OC
Result: 93.7
